Where these numbers come from: patent US9833455B2

target: P38b/MAPK11 (Homo sapiens, UniProt Q15759); construct: purchased Reaction Biology Inc (contract assay); experiment: Reaction Biology P33 radiolabeled kinase assay, IC50 and time dependence; format: biochemical; conditions: preincubation 15 Min, ATP 10 uM; read-out: Compound IC50* P38b/MAPK11
Sequence (Q15759 whole entry): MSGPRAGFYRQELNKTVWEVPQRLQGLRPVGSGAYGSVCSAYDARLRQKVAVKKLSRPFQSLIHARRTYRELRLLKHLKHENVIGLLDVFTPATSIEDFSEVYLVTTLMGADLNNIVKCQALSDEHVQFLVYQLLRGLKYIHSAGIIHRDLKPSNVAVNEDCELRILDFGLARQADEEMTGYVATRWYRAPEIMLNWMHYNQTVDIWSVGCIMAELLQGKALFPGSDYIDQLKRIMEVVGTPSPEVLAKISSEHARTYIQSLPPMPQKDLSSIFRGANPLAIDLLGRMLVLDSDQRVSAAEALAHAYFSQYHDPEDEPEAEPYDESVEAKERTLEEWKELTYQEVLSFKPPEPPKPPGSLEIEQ
measurement.type: pIC50
Give bare numbers, as −log10 of the molar value.

Just so you know, measured pIC50 for Cc1ccc(NC(=O)c2nc(S(C)(=O)=O)[nH]c2-c2ccc(F)cc2)cc1Nc1nccc(-c2cccnc2)n1 came out at 5.99

###

molecular target: P38a/MAPK14 (Homo sapiens, UniProt Q16539); construct: purchased Reaction Biology Inc (contract assay); assay: Reaction Biology P33 radiolabeled kinase assay, IC50 and time dependence; assay type: biochemical; conditions: preincubation 15 Min, ATP 10 uM; read-out: Compound IC50* P38a/MAPK14
Sequence (Q16539 whole entry): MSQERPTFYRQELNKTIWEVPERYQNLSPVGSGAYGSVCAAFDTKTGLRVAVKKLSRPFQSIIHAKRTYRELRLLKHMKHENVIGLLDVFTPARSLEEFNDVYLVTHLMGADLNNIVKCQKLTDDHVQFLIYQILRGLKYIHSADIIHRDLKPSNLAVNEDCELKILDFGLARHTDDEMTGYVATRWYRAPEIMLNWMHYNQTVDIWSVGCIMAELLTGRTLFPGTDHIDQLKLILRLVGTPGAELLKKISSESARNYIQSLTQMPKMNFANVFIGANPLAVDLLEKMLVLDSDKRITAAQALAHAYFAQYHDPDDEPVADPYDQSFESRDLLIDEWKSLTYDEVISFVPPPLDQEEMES
measurement.type: IC50 (nM)
One number for each entry, in nM.

Just so you know, measured IC50 for Cc1ccc(NC(=O)c2nc(S(C)(=O)=O)[nH]c2-c2ccc(F)cc2)cc1Nc1nccc(-c2cccnc2)n1 [Inhibitor I-14] came out at 150

###

target: FMS (Homo sapiens); assay: Reaction Biology P33 radiolabeled kinase assay, IC50 and time dependence; assay type: biochemical; details: preincubation 60 Min, ATP 10 uM; read-out: Compound IC50* FMS
measurement.type: pIC50
Numbers only, as −log10 of the molar value.

Just so you know, measured pIC50 for Cc1ccc(NC(=O)c2nc(S(C)(=O)=O)[nH]c2-c2ccc(F)cc2)cc1Nc1nccc(-c2cccnc2)n1 [Inhibitor I-14] came out at 6.62

###

biological target: DDR2 (Homo sapiens, UniProt Q16832); assay: Reaction Biology P33 radiolabeled kinase assay, IC50 and time dependence; assay type: biochemical; details: preincubation 60 Min, ATP 10 uM; read-out: Compound IC50* DDR2
Sequence (Q16832 22-855): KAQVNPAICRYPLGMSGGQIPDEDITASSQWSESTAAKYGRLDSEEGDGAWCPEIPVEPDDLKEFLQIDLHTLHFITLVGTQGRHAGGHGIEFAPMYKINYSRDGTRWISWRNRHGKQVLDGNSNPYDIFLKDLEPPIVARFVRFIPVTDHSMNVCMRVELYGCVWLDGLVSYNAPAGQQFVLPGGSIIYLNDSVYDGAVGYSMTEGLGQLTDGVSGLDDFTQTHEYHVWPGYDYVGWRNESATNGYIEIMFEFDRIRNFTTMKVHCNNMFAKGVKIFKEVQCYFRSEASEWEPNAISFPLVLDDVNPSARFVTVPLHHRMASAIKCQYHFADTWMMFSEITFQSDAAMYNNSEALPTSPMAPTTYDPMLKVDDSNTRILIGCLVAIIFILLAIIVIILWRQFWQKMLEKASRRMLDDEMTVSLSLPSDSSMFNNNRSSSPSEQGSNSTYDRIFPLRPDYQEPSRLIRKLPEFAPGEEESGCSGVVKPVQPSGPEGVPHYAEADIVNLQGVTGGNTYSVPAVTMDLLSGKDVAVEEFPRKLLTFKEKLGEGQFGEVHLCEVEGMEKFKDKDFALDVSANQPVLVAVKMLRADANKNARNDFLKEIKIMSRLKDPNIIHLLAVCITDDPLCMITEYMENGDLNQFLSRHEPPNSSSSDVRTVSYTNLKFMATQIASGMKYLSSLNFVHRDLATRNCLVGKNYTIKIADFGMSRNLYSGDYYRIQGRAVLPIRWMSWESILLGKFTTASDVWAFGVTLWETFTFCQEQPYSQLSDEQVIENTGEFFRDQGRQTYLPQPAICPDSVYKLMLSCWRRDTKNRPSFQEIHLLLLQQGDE
measurement.type: pIC50
One number for each entry, as −log10 of the molar value.

Let me check: Cc1ccc(NC(=O)c2nc(S(C)(=O)=O)[nH]c2-c2ccc(F)cc2)cc1Nc1nccc(-c2cccnc2)n1 [Inhibitor I-14] , system DDR2 (Homo sapiens, UniProt Q16832), measured pIC50 is 6.66

###

molecular target: PI3K-γ (Homo sapiens, UniProt P48736); construct: purchased Reaction Biology Inc (contract assay); assay: Reaction Biology P33 radiolabeled kinase assay, IC50 and time dependence; type: biochemical; settings: preincubation 60 Min, ATP 10 uM; read-out: Compound IC50* PI3K-γ
measurement.type: pIC50
Answers are plain numbers, as −log10 of the molar value.

Just so you know, measured pIC50 for Cc1ccc(NC(=O)c2nc(S(C)(=O)=O)[nH]c2-c2ccc(F)cc2)cc1Nc1nccc(-c2cccnc2)n1 [Inhibitor I-14] came out at 7.24

###

biological target: Aurora A (Homo sapiens); construct: purchased Reaction Biology Inc (contract assay); test: Reaction Biology P33 radiolabeled kinase assay, IC50 and time dependence; type: biochemical; settings: preincubation 15 Min, ATP 10 uM; read-out: Compound IC50* Aurora A
Sequence (O14965 whole entry): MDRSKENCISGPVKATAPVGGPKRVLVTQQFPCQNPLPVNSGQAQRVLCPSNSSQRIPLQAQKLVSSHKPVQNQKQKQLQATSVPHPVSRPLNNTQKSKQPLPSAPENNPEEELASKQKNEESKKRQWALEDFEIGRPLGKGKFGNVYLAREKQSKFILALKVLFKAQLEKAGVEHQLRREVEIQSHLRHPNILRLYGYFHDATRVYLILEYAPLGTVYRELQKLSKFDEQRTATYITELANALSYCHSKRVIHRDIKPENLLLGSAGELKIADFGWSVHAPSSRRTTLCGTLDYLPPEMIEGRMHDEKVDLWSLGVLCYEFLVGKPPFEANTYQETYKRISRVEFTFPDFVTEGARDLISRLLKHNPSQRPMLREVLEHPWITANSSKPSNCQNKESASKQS
measurement.type: pIC50
Give bare numbers, as −log10 of the molar value.

Just so you know, measured pIC50 for Cc1ccc(NC(=O)c2nc(S(C)(=O)=O)[nH]c2-c2ccc(F)cc2)cc1Nc1nccc(-c2cccnc2)n1 came out at 5.56

###

biological target: c-Kit (Homo sapiens, UniProt P10721); construct: purchased Reaction Biology Inc (contract assay); assay: Reaction Biology P33 radiolabeled kinase assay, IC50 and time dependence; format: biochemical; conditions: preincubation 15 Min, ATP 10 uM; read-out: Compound IC50* c-Kit
measurement.type: pIC50
One number for each entry, as −log10 of the molar value.

Let me check: Cc1ccc(NC(=O)c2nc(S(C)(=O)=O)[nH]c2-c2ccc(F)cc2)cc1Nc1nccc(-c2cccnc2)n1 , system c-Kit (Homo sapiens, UniProt P10721), measured pIC50 is 6.11

###

target: ARAF (Homo sapiens); construct: purchased Reaction Biology Inc (contract assay); assay: Reaction Biology P33 radiolabeled kinase assay, IC50 and time dependence; format: biochemical; settings: preincubation 15 Min, ATP 10 uM; read-out: Compound IC50* ARAF
measurement.type: IC50 (nM)
Numbers only, in nM.

Just so you know, measured IC50 for Cc1ccc(NC(=O)c2nc(S(C)(=O)=O)[nH]c2-c2ccc(F)cc2)cc1Nc1nccc(-c2cccnc2)n1 came out at 1390

###

biological target: ROS/ROS1 (Homo sapiens); construct: purchased Reaction Biology Inc (contract assay); assay: Reaction Biology P33 radiolabeled kinase assay, IC50 and time dependence; type: biochemical; conditions: preincubation 15 Min, ATP 10 uM; read-out: Compound IC50* ROS/ROS1
Sequence (P08922 28-2347): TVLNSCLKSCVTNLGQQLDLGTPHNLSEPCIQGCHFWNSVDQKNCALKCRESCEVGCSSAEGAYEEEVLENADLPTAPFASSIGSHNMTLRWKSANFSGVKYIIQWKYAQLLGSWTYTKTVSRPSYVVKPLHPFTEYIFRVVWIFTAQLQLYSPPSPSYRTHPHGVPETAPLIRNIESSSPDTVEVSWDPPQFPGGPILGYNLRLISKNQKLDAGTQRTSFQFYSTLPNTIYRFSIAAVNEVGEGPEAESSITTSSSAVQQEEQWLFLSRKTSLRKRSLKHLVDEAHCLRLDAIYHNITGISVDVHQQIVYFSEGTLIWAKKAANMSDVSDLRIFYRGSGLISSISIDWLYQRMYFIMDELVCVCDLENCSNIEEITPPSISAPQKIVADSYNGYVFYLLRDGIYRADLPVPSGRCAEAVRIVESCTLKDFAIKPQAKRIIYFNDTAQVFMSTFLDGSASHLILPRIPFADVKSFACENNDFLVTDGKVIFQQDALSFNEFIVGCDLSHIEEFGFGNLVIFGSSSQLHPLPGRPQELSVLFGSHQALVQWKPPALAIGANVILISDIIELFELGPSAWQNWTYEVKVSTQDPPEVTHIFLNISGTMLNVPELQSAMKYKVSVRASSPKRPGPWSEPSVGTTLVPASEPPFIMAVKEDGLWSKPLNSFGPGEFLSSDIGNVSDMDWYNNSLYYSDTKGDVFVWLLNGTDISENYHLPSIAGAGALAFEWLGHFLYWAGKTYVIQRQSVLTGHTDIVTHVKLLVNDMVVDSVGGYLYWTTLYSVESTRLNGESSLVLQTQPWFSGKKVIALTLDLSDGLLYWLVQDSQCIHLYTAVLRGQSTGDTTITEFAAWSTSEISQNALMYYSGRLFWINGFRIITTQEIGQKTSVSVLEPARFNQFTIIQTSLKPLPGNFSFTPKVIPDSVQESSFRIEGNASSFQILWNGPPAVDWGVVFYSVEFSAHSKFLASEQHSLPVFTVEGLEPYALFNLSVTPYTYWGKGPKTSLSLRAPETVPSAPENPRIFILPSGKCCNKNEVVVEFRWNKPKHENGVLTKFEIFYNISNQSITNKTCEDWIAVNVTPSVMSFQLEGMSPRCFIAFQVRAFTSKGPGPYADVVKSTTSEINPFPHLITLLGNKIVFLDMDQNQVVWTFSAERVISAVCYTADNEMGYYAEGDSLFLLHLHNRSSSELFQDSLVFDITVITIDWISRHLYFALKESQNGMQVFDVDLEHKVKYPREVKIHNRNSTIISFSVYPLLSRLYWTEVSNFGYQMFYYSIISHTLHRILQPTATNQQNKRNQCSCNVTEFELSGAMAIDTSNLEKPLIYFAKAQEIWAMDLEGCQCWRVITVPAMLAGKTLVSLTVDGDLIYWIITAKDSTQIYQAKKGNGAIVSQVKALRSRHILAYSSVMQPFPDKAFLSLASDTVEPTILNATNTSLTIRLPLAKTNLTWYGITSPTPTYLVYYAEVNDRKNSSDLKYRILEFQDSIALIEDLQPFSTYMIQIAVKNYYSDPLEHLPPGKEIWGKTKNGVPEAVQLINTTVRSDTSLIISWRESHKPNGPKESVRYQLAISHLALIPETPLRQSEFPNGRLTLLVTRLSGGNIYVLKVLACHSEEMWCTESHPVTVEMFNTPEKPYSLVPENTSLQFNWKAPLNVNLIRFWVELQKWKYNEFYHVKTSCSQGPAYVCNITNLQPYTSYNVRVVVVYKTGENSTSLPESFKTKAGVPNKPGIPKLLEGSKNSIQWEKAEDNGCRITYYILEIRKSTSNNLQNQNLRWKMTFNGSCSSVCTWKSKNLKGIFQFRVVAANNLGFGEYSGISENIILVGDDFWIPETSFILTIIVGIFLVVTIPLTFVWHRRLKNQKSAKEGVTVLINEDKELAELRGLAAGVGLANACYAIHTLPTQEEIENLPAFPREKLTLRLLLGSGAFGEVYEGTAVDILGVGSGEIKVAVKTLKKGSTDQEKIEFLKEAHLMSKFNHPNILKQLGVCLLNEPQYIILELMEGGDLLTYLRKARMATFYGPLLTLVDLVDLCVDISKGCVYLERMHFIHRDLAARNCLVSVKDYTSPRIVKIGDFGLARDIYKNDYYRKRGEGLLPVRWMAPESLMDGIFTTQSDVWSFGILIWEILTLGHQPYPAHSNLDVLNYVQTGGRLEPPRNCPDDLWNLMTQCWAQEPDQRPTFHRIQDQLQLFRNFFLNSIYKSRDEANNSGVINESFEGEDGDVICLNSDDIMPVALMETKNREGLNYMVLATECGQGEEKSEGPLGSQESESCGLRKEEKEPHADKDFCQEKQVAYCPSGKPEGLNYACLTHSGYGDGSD
measurement.type: IC50 (nM)
Numbers only, in nM.

Just so you know, measured IC50 for Cc1ccc(NC(=O)c2nc(S(C)(=O)=O)[nH]c2-c2ccc(F)cc2)cc1Nc1nccc(-c2cccnc2)n1 [Inhibitor I-14] came out at 1250

###

target: PDGFR-β (Homo sapiens); test: Reaction Biology P33 radiolabeled kinase assay, IC50 and time dependence; type: biochemical; conditions: preincubation 15 Min, ATP 10 uM; read-out: Compound IC50* PDGFR-β
measurement.type: IC50 (nM)
Numbers only, in nM.

Let me check: Cc1ccc(NC(=O)c2nc(S(C)(=O)=O)[nH]c2-c2ccc(F)cc2)cc1Nc1nccc(-c2cccnc2)n1 , system PDGFR-β (Homo sapiens), measured IC50 is 2010

###

Biological target: TNK1 (Homo sapiens, UniProt Q13470)
Construct: purchased Reaction Biology Inc (contract assay)
Sequence (Q13470 1-666): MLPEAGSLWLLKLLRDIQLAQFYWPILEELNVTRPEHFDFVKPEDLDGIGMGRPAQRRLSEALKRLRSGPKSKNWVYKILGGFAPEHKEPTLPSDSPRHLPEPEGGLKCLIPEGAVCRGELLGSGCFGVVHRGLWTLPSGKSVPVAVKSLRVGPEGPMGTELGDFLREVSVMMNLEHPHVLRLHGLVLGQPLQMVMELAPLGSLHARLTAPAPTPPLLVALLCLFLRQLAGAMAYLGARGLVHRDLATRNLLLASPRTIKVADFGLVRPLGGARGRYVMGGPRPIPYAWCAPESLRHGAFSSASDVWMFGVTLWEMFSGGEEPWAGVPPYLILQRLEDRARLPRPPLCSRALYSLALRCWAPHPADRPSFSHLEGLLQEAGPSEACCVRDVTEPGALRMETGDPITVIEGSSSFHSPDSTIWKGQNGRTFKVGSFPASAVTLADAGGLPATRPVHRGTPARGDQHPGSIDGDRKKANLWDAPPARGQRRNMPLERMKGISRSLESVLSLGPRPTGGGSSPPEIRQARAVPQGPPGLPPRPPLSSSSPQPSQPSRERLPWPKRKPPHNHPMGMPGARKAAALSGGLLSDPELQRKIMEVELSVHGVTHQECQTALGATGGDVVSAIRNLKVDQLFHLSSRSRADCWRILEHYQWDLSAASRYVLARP
Experiment: Reaction Biology P33 radiolabeled kinase assay, IC50 and time dependence
Type: biochemical
Conditions: preincubation 60 Min, ATP 10 uM; read-out: Compound IC50* TNK1
measurement.type: pIC50
Numbers only, as −log10 of the molar value.

Just so you know, measured pIC50 for Cc1ccc(NC(=O)c2nc(S(C)(=O)=O)[nH]c2-c2ccc(F)cc2)cc1Nc1nccc(-c2cccnc2)n1 [Inhibitor I-14] came out at 6.62

###

target: BRAF (V599E) (Homo sapiens, UniProt P15056, V600E); construct: purchased Reaction Biology Inc (contract assay); test: Reaction Biology P33 radiolabeled kinase assay, IC50 and time dependence; type: biochemical; details: preincubation 15 Min, ATP 10 uM; read-out: Compound IC50* BRAF (V599E)
Sequence (P15056 2-766 V600E): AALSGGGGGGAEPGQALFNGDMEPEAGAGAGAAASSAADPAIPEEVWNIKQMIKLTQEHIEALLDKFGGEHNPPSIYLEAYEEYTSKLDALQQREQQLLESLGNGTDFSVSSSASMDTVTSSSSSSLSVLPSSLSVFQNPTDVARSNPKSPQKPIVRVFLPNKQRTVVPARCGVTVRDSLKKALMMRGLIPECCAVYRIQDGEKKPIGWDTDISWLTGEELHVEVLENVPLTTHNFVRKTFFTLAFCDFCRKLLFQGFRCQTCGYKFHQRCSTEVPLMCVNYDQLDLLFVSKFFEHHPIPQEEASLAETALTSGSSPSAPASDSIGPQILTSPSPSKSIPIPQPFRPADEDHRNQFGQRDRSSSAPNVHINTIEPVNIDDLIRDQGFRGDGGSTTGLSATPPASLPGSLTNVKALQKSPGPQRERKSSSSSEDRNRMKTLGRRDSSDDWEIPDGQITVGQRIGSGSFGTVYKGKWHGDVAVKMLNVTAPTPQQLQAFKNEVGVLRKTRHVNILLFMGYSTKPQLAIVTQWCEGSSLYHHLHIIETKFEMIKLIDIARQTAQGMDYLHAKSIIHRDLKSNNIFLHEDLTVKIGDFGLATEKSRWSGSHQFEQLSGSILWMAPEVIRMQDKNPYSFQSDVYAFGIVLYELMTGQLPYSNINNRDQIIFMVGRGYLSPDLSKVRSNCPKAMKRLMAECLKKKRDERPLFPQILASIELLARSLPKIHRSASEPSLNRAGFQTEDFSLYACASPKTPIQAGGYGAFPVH
measurement.type: pIC50
Give bare numbers, as −log10 of the molar value.

Let me check: Cc1ccc(NC(=O)c2nc(S(C)(=O)=O)[nH]c2-c2ccc(F)cc2)cc1Nc1nccc(-c2cccnc2)n1 , system BRAF (V599E) (Homo sapiens, UniProt P15056, V600E), measured pIC50 is 6.71

###

target: P38b/MAPK11 (Homo sapiens, UniProt Q15759); construct: purchased Reaction Biology Inc (contract assay); assay: Reaction Biology P33 radiolabeled kinase assay, IC50 and time dependence; assay type: biochemical; settings: preincubation 60 Min, ATP 10 uM; read-out: Compound IC50* P38b/MAPK11
measurement.type: IC50 (µM)
Give bare numbers, in µM.

Let me check: Cc1ccc(NC(=O)c2nc(S(C)(=O)=O)[nH]c2-c2ccc(F)cc2)cc1Nc1nccc(-c2cccnc2)n1 , system P38b/MAPK11 (Homo sapiens, UniProt Q15759), measured IC50 is 1.08

###

target: DDR2 (Homo sapiens); assay: Reaction Biology P33 radiolabeled kinase assay, IC50 and time dependence; assay type: biochemical; details: preincubation 15 Min, ATP 10 uM; read-out: Compound IC50* DDR2
measurement.type: IC50 (nM)
One number for each entry, in nM.

Just so you know, measured IC50 for Cc1ccc(NC(=O)c2nc(S(C)(=O)=O)[nH]c2-c2ccc(F)cc2)cc1Nc1nccc(-c2cccnc2)n1 [Inhibitor I-14] came out at 222
